# protocol description: Reverse transcriptase activity was measured in the culture supernatant, concentration that reduces by 50% the HIV produced in the supernatant.
property name: pEC50
pEC50 is a log-scale quantity: -log10 of the concentration expressed in molar.

COCCOCn1c(=O)c(C)cn(C2CC(N=[N+]=[N-])C(CO)O2)c1=O (centres undefined) : 3.85

[in] Could you share which pEC50 value was measured for Cc1cn(C2CC(N=[N+]=[N-])C(CO)O2)c(=O)n(N)c1=O (centres undefined) ?
[out] 6.30

[in] Quick one: Cc1cn(C2CC(N=[N+]=[N-])C(CO)O2)c(=O)n(CCN=[N+]=[N-])c1=O (centres undefined)
[out] 5.82

[in] What do we get for Cc1cn(C2CC(N=[N+]=[N-])C(CO)O2)c(=O)n(CCO)c1=O (centres undefined) ?
[out] 7.05

[in] Cc1cn(C2CC(N=[N+]=[N-])C(CO)O2)c(=O)n(CCn2c(=O)c(C)cn(C3CC(N=[N+]=[N-])C(CO)O3)c2=O)c1=O (centres undefined) , same question.
[out] 5.85

[in] Let us now turn to CCOC(Cn1c(=O)c(C)cn(C2CC(N=[N+]=[N-])C(CO)O2)c1=O)OCC (centres undefined)
[out] 5.82

[in] Input CCOP(=O)(Cn1c(=O)c(C)cn(C2CC(N=[N+]=[N-])C(CO)O2)c1=O)OCC (centres undefined)
[out] 5.33

[in] Another compound to look at: C=CCn1c(=O)c(C)cn(C2CC(N=[N+]=[N-])C(CO)O2)c1=O (centres undefined)
[out] 4.19

[in] Queued: Cc1cn(C2CC(N=[N+]=[N-])C(CO)O2)c(=O)n(CC2COC(C)(C)O2)c1=O (centres undefined)
[out] 4.89

====

# protocol description: Reverse transcriptase activity was measured in the culture supernatant, concentration that reduces by 50% the HIV produced in the supernatant.
property name: EC50 (nM)
Answer with a number only, understood to be in nM.

Take a look at these entries with their results.
Cc1cn(C2CC(N=[N+]=[N-])C(CO)O2)c(=O)n(CCCO)c1=O (stereo unspecified) : 120
Cc1cn(C2CC(N=[N+]=[N-])C(CO)O2)c(=O)n(CC2CC(CO)=NO2)c1=O (stereo unspecified) : 1300

[in] Requested read-out: EC50. Entry: CCOC(=O)Cn1c(=O)c(C)cn(C2CC(N=[N+]=[N-])C(CO)O2)c1=O (stereo unspecified)
[out] 14000

[in] Same question, Cc1cn(C2CC(N=[N+]=[N-])C(CO)O2)c(=O)n(CCCCCCO)c1=O (stereo unspecified) this time
[out] 1200

[in] What do you get for Cc1cn(C2CC(n3c(=O)c(C)cn(C4CC(N=[N+]=[N-])C(CO)O4)c3=O)C(CO)O2)c(=O)[nH]c1=O (stereo unspecified) ?
[out] 100
